Could you please report measured pIC50 for the items listed next?
# Test target: hepatic lipase (HL) (Homo sapiens (Human))
# Sequence (P11150 23-499, species assumed): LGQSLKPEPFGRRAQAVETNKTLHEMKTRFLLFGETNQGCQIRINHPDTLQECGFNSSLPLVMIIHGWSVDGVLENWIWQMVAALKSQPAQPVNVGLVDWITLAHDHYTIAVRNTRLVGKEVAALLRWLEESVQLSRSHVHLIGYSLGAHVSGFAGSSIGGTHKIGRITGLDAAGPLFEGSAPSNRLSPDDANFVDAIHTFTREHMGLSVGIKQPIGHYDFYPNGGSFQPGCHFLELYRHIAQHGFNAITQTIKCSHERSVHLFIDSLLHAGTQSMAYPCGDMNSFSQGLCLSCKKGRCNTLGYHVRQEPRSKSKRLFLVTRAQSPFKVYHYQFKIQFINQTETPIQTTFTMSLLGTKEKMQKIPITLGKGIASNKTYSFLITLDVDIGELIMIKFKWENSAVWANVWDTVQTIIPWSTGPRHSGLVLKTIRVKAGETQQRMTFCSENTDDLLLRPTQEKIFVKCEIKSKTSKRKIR
# Assay details: HL assay: hepatic lipase activity with fluorescent substrate A10070 in DMPG vesicles
# Assay type: biochemical
One number for each entry, as −log10 of the molar value.

Reference set (5 entries):
>  <Compound>
NS(=O)(=O)CCNC(=O)C(c1nc2ccc(-c3ccc(C(=O)NC4CC4)cc3)cc2s1)S(=O)(=O)Cc1ccc(OC(F)(F)F)cc1 (stereo not drawn) [Example B226]

>  <pIC50>
7.13

$$$$
>  <Compound>
Cc1cc(CNC(=O)C(c2nc3ccc(-c4ccccc4)cc3s2)S(C)(=O)=O)on1 (stereo not drawn) [Example B233]

>  <pIC50>
8.44

$$$$
>  <Compound>
CS(=O)(=O)C(C(=O)NCCS(N)(=O)=O)c1nc2ccc(-c3ccc(-c4nnc(N)s4)cc3)cc2s1 (stereo not drawn) [Example B223]

>  <pIC50>
8.11

$$$$
>  <Compound>
COC1CN(C(=O)c2ccc(-c3ccc4nc(C(C(=O)NCCS(N)(=O)=O)S(=O)(=O)Cc5ccc(OC(F)(F)F)cc5)sc4c3)cc2)C1 (stereo not drawn) [Example B300]

>  <pIC50>
7.07

$$$$
>  <Compound>
NS(=O)(=O)CCNC(=O)C(c1nc2ccc(-c3ccc(C(=O)N4CCCCC4)cc3)cc2s1)S(=O)(=O)Cc1ccccc1 (stereo not drawn) [Example B351]

>  <pIC50>
7.83

$$$$

List reported pIC50 for each of these compounds:
1. NC(=O)c1ccc(-c2ccc3nc(C(C(=O)NCCS(N)(=O)=O)S(=O)(=O)CCC(F)(F)F)sc3c2)cc1 (stereo not drawn) [Example B228]
2. COC(=O)CCS(=O)(=O)C(C(=O)NCc1nnc(C)o1)c1nc2ccc(-c3ccccc3)cc2s1 (stereo not drawn) [Example B205]
3. Cc1nnc(CNC(=O)C(c2nc3cc(C)c(-c4ccc5c(c4)CCC(=O)N5)cc3s2)S(C)(=O)=O)o1 (stereo not drawn) [Example B85]
4. Cn1ccc(-c2ccc3nc(C(C(=O)NCCS(N)(=O)=O)S(=O)(=O)Cc4ccc(C(F)(F)F)cc4)sc3c2)cc1=O (stereo not drawn) [Example B364]
5. COC(C)(C)CNC(=O)c1ccc(-c2ccc3nc(C(C(=O)NCCS(N)(=O)=O)S(=O)(=O)CC4CC4)sc3c2)cc1 (stereo not drawn) [Example B244]

1: 6.60; 2: 7.00; 3: 6.91; 4: 5.00; 5: 7.92

Give pIC50 for each listed item.
1. CS(=O)(=O)C(C(=O)NCCS(N)(=O)=O)c1nc2ccc(-c3ccc4c(c3)C(=O)NC4)cc2s1 (stereo not drawn) [Example B181]
2. Cc1nnc(CNC(=O)C(c2nc3ccc(-c4ccc(C(=O)OC(C)(C)C)cc4)cc3s2)S(C)(=O)=O)s1 (stereo not drawn) [Example B279]
3. COCCNC(=O)c1ccc(-c2ccc3nc(C(C(=O)NCCS(N)(=O)=O)S(=O)(=O)Cc4ccc(OC(F)(F)F)cc4)sc3c2)cc1 (stereo not drawn) [Example B113]
4. Cc1cc2nc(C(C(=O)NCCS(N)(=O)=O)S(=O)(=O)Cc3ccccc3)sc2cc1-c1ccc(C(=O)O)cc1 (stereo not drawn) [Example B325]

6.84
8.55
7.32
6.98
